Give measured viability at 2 h, 1.6 µM for each item. Keep answers brief.
- Test details: Cytotoxicity against human SH-SY5Y cells assessed as cell viability at 1.6 uM measured after 2 hrs by MTT assay relative to control
- Assay type: cell-based
- Test conditions: read-out: Activity
Please answer in the form of a number followed by its unit of measurement.

Quick one: viability at 2 h, 1.6 µM of COc1cc2c(cc1O)CCC(C)(CC(=O)N[C@@H](CCC(N)=O)C(=O)O)O2 (stereo not given in full) ? 97.1%

Quick one: viability at 2 h, 1.6 µM of COc1cc2c(cc1O)CCC(C)(CC(=O)N[C@@H](C)C(=O)O)O2 (stereo not given in full) ? 86.9%

Quick one: viability at 2 h, 1.6 µM of COc1cc2c(cc1O)CCC(C)(CC(=O)N[C@H](C(=O)O)C(C)C)O2 (stereo not given in full) ? 92.6%

Quick one: viability at 2 h, 1.6 µM of COc1cc2c(cc1O)CCC(C)(CCNC(=O)/C=C(C)/C=C/C=C(C)/C=C/C1=C(C)CCCC1(C)C)O2 (stereo not given) ? 93.6%

Quick one: viability at 2 h, 1.6 µM of COc1cc2c(cc1O)CCC(C)(CC(N)=O)O2 (stereo not given) ? 96.1%

Quick one: viability at 2 h, 1.6 µM of COc1cc2c(cc1O)CCC(C)(CC(=O)O)O2 (stereo not given) ? 100%

Quick one: viability at 2 h, 1.6 µM of COc1cc2c(cc1O)CCC(C)(CC(=O)N[C@@H](Cc1ccccc1)C(=O)O)O2 (stereo not given in full) ? 100%

Quick one: viability at 2 h, 1.6 µM of COc1cc2c(cc1O)CCC(C)(CC(=O)NCCc1ccc(O)c(O)c1)O2 (stereo not given) ? 100%

Quick one: viability at 2 h, 1.6 µM of COc1cc2c(cc1O)CCC(C)(CC(=O)N[C@@H](Cc1c[nH]c3ccccc13)C(=O)O)O2 (stereo not given in full) ? 97.2%

Quick one: viability at 2 h, 1.6 µM of COc1cc2c(cc1O)CCC(C)(CC(N)C(=O)O)O2 (stereo not given) ? 100%
